# Protocol: Selectivity index, ratio of IC50 for cytotoxicity against human MCF-10A cells to IC50 for antiproliferative activity against human Bel-7402 cells
# Assay type: toxicity, cell-based
# Assay Setup: MCF-10A cells versus Bel-7402 cells, read-out: Ratio IC50
For each record, check the reported selectivity ratio: if it is below 3 write Fulfilled, else write Not fulfilled.

Query: In plain terms, does COC(=O)[C@]1(C)CC[C@]2(C)CC[C@]3(C)C4=CC=C5C(=CC(=O)C(O)=C5C)[C@]4(C)CC[C@@]3(C)[C@@H]2C1 [PRISTIMERIN] come in under 3 for selectivity ratio?
Reply: Fulfilled

Query: Strictly below 3: is that where selectivity ratio of COC(=O)[C@]1(C)CC[C@]2(C)CC[C@@]3(C)[C@@](C)(CC=C4c5cc6nc7cc(C(=O)N8CCN(CCN9CCOCC9)CC8)ccc7nc6c(C)c5C=C[C@]43C)[C@@H]2C1 sits?
Reply: Fulfilled

Query: Regarding COC(=O)[C@]1(C)CC[C@]2(C)CC[C@@]3(C)[C@@](C)(CC=C4c5cc6nc7cc(C(=O)N8CCN(CCO)CC8)ccc7nc6c(C)c5C=C[C@]43C)[C@@H]2C1 , kindly confirm whether its selectivity ratio is beneath 3.
Reply: Not fulfilled

Query: Hi there! Is selectivity ratio for COC(=O)[C@]1(C)CC[C@]2(C)CC[C@@]3(C)[C@@](C)(CC=C4c5cc6nc7cc(C(=O)N8CCN(C9CCN(C)CC9)CC8)ccc7nc6c(C)c5C=C[C@]43C)[C@@H]2C1 below 3, do you know?
Reply: Not fulfilled

Query: Find out if reported selectivity ratio for COC(=O)[C@]1(C)CC[C@]2(C)CC[C@@]3(C)[C@@](C)(CC=C4c5cc6nc7cc(C(=O)N8CCN(C)CC8)ccc7nc6c(C)c5C=C[C@]43C)[C@@H]2C1 is less than 3
Reply: Fulfilled

Query: Is selectivity ratio strictly under 3 for the entry COC(=O)[C@]1(C)CC[C@]2(C)CC[C@@]3(C)[C@@](C)(CC=C4c5cc6nc7cc(C(=O)NCCN(C)C)ccc7nc6c(C)c5C=C[C@]43C)[C@@H]2C1 ?
Reply: Not fulfilled

Query: State whether 3 exceeds selectivity ratio recorded for COC(=O)[C@]1(C)CC[C@]2(C)CC[C@@]3(C)[C@@](C)(CC=C4c5cc6nc7cc(C(=O)N8CCN(CCN(C)C)CC8)ccc7nc6c(C)c5C=C[C@]43C)[C@@H]2C1 .
Reply: Not fulfilled
